Reference source: ChEMBL document CHEMBL1146313

test: Inhibition of human FTase
METRIC: IC50 (nM)

INSERT INTO measurements (molecule, readout_relation, measured) VALUES
  ('N#Cc1ccc(Cn2cncc2CN2CC[C@@H](c3ccccc3Br)[C@H]([N+](=O)[O-])[C@H]2c2ccccc2)cc1 (racemic)', '=', 44),
  ('CCc1ccccc1[C@@H]1CCN(Cc2cccnc2)[C@H](c2ccc(O)c(NCc3cccnc3)c2)[C@H]1[N+](=O)[O-] (racemic)', '=', 24),
  ('CCc1ccccc1[C@@H]1CCN(Cc2cccnc2)[C@H](c2ccc(O)c(NCc3ccncc3)c2)[C@H]1[N+](=O)[O-] (racemic)', '=', 12),
  ('CCc1ccccc1[C@@H]1CCN(Cc2cccnc2)[C@H](c2ccc(O)c(NCc3ccccn3)c2)[C@H]1[N+](=O)[O-] (racemic)', '=', 23),
  ('O=[N+]([O-])[C@H]1[C@H](c2ccccc2Br)CCN(Cc2cccnc2)[C@H]1c1ccccn1 (racemic)', '=', 25),
  ('CCNc1cc([C@@H]2[C@@H]([N+](=O)[O-])[C@H](c3ccccc3Br)CCN2Cc2cccnc2)ccc1O (racemic)', '=', 50),
  ('O=[N+]([O-])[C@@H]1[C@@H](c2ccccc2)N(Cc2cnc[nH]2)CC[C@H]1c1ccccc1Br (racemic)', '>', 500);
